- ASSAY SYSTEM: human M4 receptor (Homo sapiens, UniProt P08173)
- Sequence (P08173 whole entry): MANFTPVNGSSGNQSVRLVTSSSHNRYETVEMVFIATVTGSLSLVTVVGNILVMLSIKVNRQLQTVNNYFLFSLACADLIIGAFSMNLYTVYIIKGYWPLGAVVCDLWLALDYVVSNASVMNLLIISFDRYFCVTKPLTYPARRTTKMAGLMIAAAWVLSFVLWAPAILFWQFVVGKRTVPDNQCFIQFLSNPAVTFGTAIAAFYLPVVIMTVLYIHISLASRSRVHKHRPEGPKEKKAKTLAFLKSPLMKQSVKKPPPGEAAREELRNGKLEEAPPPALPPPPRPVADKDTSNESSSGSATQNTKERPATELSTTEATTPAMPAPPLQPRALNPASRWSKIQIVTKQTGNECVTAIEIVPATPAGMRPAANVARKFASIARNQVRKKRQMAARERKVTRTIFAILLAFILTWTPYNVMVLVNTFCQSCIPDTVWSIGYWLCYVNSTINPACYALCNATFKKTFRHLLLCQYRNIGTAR
- ASSAY SUMMARY: In vitro functional assay, reversal of EC80 acetylcholine response in CHO-K1 aequorin cells
pIC50: −log10 of the molar value.
Catalogue of compounds with associated pIC50
READOUT KIND: pIC50

[[record]]
compound = "COc1cccnc1C(F)(F)CCC(=O)N1CC2CCC(C1)N2c1ccc(C#N)cn1 [Example 162]"
assay_system = "human M4 receptor (Homo sapiens, UniProt P08173)"
measured_result = "6.00 to 7.00"

[[record]]
compound = "N#Cc1ccc(N2C3CCC2CN(C(=O)CCC(F)(F)c2cccn4ncnc24)C3)nc1 [Example 158]"
assay_system = "human M4 receptor (Homo sapiens, UniProt P08173)"
measured_result = "6.00 to 7.00"

[[record]]
compound = "COc1cc(C(F)(F)CCC(=O)N2CC3CCC(C2)N3c2ccc(C#N)cn2)ccn1 [Example 138]"
assay_system = "human M4 receptor (Homo sapiens, UniProt P08173)"
measured_result = "6.00 to 7.00"

[[record]]
compound = "C[C@H](NCC(=O)N1CC2CCC(C1)N2c1ccc(C#N)cn1)c1ccc(F)cc1F [Example 87]"
assay_system = "human M4 receptor (Homo sapiens, UniProt P08173)"
measured_result = "5.00 to 6.00"

[[record]]
compound = "N#Cc1ccc(N2C3CCC2CN(C(=O)COC2(c4ccc(F)c(F)c4)CC2)C3)nc1 [Example 177]"
assay_system = "human M4 receptor (Homo sapiens, UniProt P08173)"
measured_result = "5.00 to 6.00"

[[record]]
compound = "COc1ccnc(C(F)(F)CCC(=O)N2CC3CCC(C2)N3c2ccc(C#N)cn2)c1 [Example 147]"
assay_system = "human M4 receptor (Homo sapiens, UniProt P08173)"
measured_result = "6.00 to 7.00"

[[record]]
compound = "N#Cc1ccc(N2C3CCC2CN(C(=O)CCNC2(c4ccc(F)c(F)c4)CC2)C3)nc1 [Example 1]"
assay_system = "human M4 receptor (Homo sapiens, UniProt P08173)"
measured_result = "6.00 to 7.00"

[[record]]
compound = "N#Cc1ccc(N2C3CCC2CN(C(=O)CNC2(c4ccc(F)cc4F)CC2)C3)nc1 [Example 59]"
assay_system = "human M4 receptor (Homo sapiens, UniProt P08173)"
measured_result = "5.00 to 6.00"

[[record]]
compound = "N#Cc1ccc(N2C3CC[C@H]2CN(C(=O)COC2(c4ccc(F)c(F)c4)CCC2)C3)nc1 [Example 239]"
assay_system = "human M4 receptor (Homo sapiens, UniProt P08173)"
measured_result = "5.00 to 6.00"

[[record]]
compound = "COc1cc(C2(NCC(=O)N3CC4CCC(C3)N4c3ccc(C#N)cn3)CCC2)ccn1 [Example 118]"
assay_system = "human M4 receptor (Homo sapiens, UniProt P08173)"
measured_result = "6.00 to 7.00"


----------
- ASSAY SYSTEM: human M1 receptor (Homo sapiens)
- Sequence (P11229 whole entry): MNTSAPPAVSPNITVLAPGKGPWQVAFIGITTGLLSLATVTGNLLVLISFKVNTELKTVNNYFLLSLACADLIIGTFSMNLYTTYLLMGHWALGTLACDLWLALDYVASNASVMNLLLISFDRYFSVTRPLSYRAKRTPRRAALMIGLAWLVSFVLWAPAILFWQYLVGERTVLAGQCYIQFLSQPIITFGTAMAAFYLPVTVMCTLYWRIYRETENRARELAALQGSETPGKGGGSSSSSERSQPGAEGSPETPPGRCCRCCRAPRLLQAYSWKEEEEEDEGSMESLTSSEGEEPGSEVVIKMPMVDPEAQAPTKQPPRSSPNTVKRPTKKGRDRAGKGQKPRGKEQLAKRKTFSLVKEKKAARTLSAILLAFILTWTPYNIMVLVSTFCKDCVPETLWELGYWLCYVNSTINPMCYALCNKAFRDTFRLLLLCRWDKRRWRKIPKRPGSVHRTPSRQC
- ASSAY SUMMARY: In vitro functional assay of muscarinic acetylcholine receptor activity (aequorin calcium flux, reversal of EC80 acetylcholine response)
- Format: cell-based
- CONDITION DETAILS: CHO-K1 cells stably expressing human M1 receptor with aequorin; acetylcholine at EC80; calcium flux (luminescence); read-out: M1 IC50
pIC50: −log10 of the molar value.
READOUT KIND: pIC50

[[record]]
compound = "CC1c2ccccc2CCN1CC(=O)N1CC2CCC(C1)N2c1ccc(C#N)cn1 (racemic)"
readout_kind = "pIC50"
measured_result = "6.00 to 7.00"

[[record]]
compound = "N#Cc1ccc(N2C3CCC2CN(C(=O)COC2(c4ccncc4F)CCC2)C3)nc1"
readout_kind = "pIC50"
measured_result = "> 8.00"

[[record]]
compound = "N#Cc1ccc(N2C3CCC2CN(C(=O)COC2(c4ncccn4)CCC2)C3)nc1"
readout_kind = "pIC50"
measured_result = "6.00 to 7.00"

[[record]]
compound = "N#Cc1ccc(N2C3CCC2CN(C(=O)CNC2(c4ccncc4)CC2)C3)nc1"
readout_kind = "pIC50"
measured_result = "6.00 to 7.00"

[[record]]
compound = "COc1cccc(C(F)(F)CCC(=O)N2CC3CCC(C2)N3c2ccc(C#N)cn2)n1"
readout_kind = "pIC50"
measured_result = "> 8.00"

[[record]]
compound = "COc1cccc(C2(NCC(=O)N3CC4CCC(C3)N4c3ccc(C#N)cn3)CC2)c1"
readout_kind = "pIC50"
measured_result = "> 8.00"

[[record]]
compound = "COc1c(F)ccc(C2(NCC(=O)N3CC4CCC(C3)N4c3ccc(C#N)cn3)CC2)c1F"
readout_kind = "pIC50"
measured_result = "> 8.00"

[[record]]
compound = "COc1cc([C@H](C)NCCC(=O)N2C[C@H]3CC[C@@H](C2)N3c2ccc(C#N)cn2)ccn1"
readout_kind = "pIC50"
measured_result = "5.00 to 6.00"

